Each recorded value in this set is attributed to PubChem BioAssay AID1919005.

System: 855422-203-R-J1-PDC complex spheroid growth
ASSAY_REMARKS: Anticancer human tumor 855422-203-R-J1-PDC patient-derived bladder carcinoma cell line growth inhibition [AhR]
MEASUREMENT_CONTEXT: second compound 3.16 µM; first compound 3.16 µM; stronger effect = lower value
Define the label as Y when viability, T/C is strictly less than 50% and as N in all remaining cases.

1. NS(=O)(=O)OCC1CC(n2ccc3c(NC4CCc5ccccc54)ncnc32)CC1O (stereo not given) + CC(CO)NC(=O)c1cc(-c2ccc(Cl)cc2)nn(-c2cnn(C)c2)c1=O
Y
2. O=C(C=Cc1cccc(S(=O)(=O)Nc2ccccc2)c1)NO + CC(CO)NC(=O)c1cc(-c2ccc(Cl)cc2)nn(-c2cnn(C)c2)c1=O
Y
3. COc1ccc([C@@H](O)c2cc(-c3ncnc4cc(N5CCOCC5)ccc34)c(F)cc2Cl)nn1 + Cc1cncc(-c2nc(NCCc3c[nH]c4ccccc34)c3ncn(C(C)C)c3n2)c1
N
4. O=C(C=Cc1cccc(S(=O)(=O)Nc2ccccc2)c1)NO + Cc1ccccc1N=Nc1ccc(NC(=O)c2ccnn2C)c(C)c1
N
5. O=C(c1cc(Cc2n[nH]c(=O)c3ccccc23)ccc1F)N1CCN(C(=O)C2CC2)CC1 + Cc1ccccc1N=Nc1ccc(NC(=O)c2ccnn2C)c(C)c1
N
6. CC1COCCN1c1cc(C2(S(C)(=N)=O)CC2)nc(-c2ccnc3[nH]ccc23)n1 (stereo not given) + Cc1ccccc1N=Nc1ccc(NC(=O)c2ccnn2C)c(C)c1
N
7. COc1cc(C2c3cc4c(cc3C(OC3OC5COC(C)OC5C(O)C3O)C3COC(=O)C23)OCO4)cc(OC)c1O (stereo not given) + Cc1ccccc1N=Nc1ccc(NC(=O)c2ccnn2C)c(C)c1
Y
8. COc1cc(Nc2ncc3c(n2)-c2ccc(Cl)cc2C(c2c(F)cccc2OC)=NC3)ccc1C(=O)O + CC(CO)NC(=O)c1cc(-c2ccc(Cl)cc2)nn(-c2cnn(C)c2)c1=O
Y

Prompt: Lab log: compare recorded viability, T/C with 50%; is it strictly lower for COc1cc(Nc2ncc3c(n2)-c2ccc(Cl)cc2C(c2c(F)cccc2OC)=NC3)ccc1C(=O)O + Cc1ccccc1N=Nc1ccc(NC(=O)c2ccnn2C)c(C)c1 ?
Completion: N

Prompt: Lab log: compare recorded viability, T/C with 50%; is it strictly lower for COc1cc(C2c3cc4c(cc3C(OC3OC5COC(C)OC5C(O)C3O)C3COC(=O)C23)OCO4)cc(OC)c1O (stereo not given) + CC(CO)NC(=O)c1cc(-c2ccc(Cl)cc2)nn(-c2cnn(C)c2)c1=O ?
Completion: Y

###

Attribute: viability, T/C
Test system: 855422-203-R-J1-PDC complex spheroid growth
ASSAY_REMARKS: Anticancer human tumor 855422-203-R-J1-PDC cell line growth inhibition [AhR];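 further: spheroids exposed to agents for seven days before readout; percent of DMSO vehicle control luminescence viability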
MEASUREMENT_CONTEXT: second compound 10 µM; first compound 1 µM; stronger effect = lower value
Numeric only. Scale: %

1. COc1cccc2c1C(=O)c1c(O)c3c(c(O)c1C2=O)CC(O)(C(=O)CO)CC3OC1CC(N)C(O)C(C)O1 (configuration not stated) + CC(CO)NC(=O)c1cc(-c2ccc(Cl)cc2)nn(-c2cnn(C)c2)c1=O
0.53
2. NS(=O)(=O)OCC1CC(n2ccc3c(NC4CCc5ccccc54)ncnc32)CC1O (configuration not stated) + Cc1cncc(-c2nc(NCCc3c[nH]c4ccccc34)c3ncn(C(C)C)c3n2)c1
0.63
3. Nc1ccccc1NC(=O)c1ccc(CNC(=O)OCc2cccnc2)cc1 + Cc1cncc(-c2nc(NCCc3c[nH]c4ccccc34)c3ncn(C(C)C)c3n2)c1
0.3
4. CC1COCCN1c1cc(-c2ccnn2C)c2ccnc(-c3ccn[nH]3)c2n1 (configuration not stated) + Cc1ccccc1N=Nc1ccc(NC(=O)c2ccnn2C)c(C)c1
20.9

Prompt: Observed viability, T/C on 855422-203-R-J1-PDC complex spheroid growth for COc1ccc([C@@H](O)c2cc(-c3ncnc4cc(N5CCOCC5)ccc34)c(F)cc2Cl)nn1 + Cc1cncc(-c2nc(NCCc3c[nH]c4ccccc34)c3ncn(C(C)C)c3n2)c1 , please.
Completion: 0.4

Prompt: Observed viability, T/C on 855422-203-R-J1-PDC complex spheroid growth for Nc1ccn(C2OC(CO)C(O)C2(F)F)c(=O)n1 (configuration not stated) + Cc1cncc(-c2nc(NCCc3c[nH]c4ccccc34)c3ncn(C(C)C)c3n2)c1 , please.
Completion: 0.96

Prompt: Observed viability, T/C on 855422-203-R-J1-PDC complex spheroid growth for Nc1ccn(C2OC(CO)C(O)C2(F)F)c(=O)n1 (configuration not stated) + Cc1ccccc1N=Nc1ccc(NC(=O)c2ccnn2C)c(C)c1 , please.
Completion: 27.7

Prompt: Observed viability, T/C on 855422-203-R-J1-PDC complex spheroid growth for COc1cc(C2c3cc4c(cc3C(OC3OC5COC(C)OC5C(O)C3O)C3COC(=O)C23)OCO4)cc(OC)c1O (configuration not stated) + CC(CO)NC(=O)c1cc(-c2ccc(Cl)cc2)nn(-c2cnn(C)c2)c1=O , please.
Completion: 24.3

Prompt: Observed viability, T/C on 855422-203-R-J1-PDC complex spheroid growth for CC(C)c1c(-c2ccccc2)nc2c(C#N)c[nH]n2c1=O + Cc1ccccc1N=Nc1ccc(NC(=O)c2ccnn2C)c(C)c1 , please.
Completion: 86

Prompt: Observed viability, T/C on 855422-203-R-J1-PDC complex spheroid growth for O=C(C=Cc1cccc(S(=O)(=O)Nc2ccccc2)c1)NO + Cc1cncc(-c2nc(NCCc3c[nH]c4ccccc34)c3ncn(C(C)C)c3n2)c1 , please.
Completion: 3.43

Prompt: Observed viability, T/C on 855422-203-R-J1-PDC complex spheroid growth for COc1cc(C2c3cc4c(cc3C(OC3OC5COC(C)OC5C(O)C3O)C3COC(=O)C23)OCO4)cc(OC)c1O (configuration not stated) + Cc1cncc(-c2nc(NCCc3c[nH]c4ccccc34)c3ncn(C(C)C)c3n2)c1 , please.
Completion: 0.55

Prompt: Observed viability, T/C on 855422-203-R-J1-PDC complex spheroid growth for COc1cc(Nc2ncc3c(n2)-c2ccc(Cl)cc2C(c2c(F)cccc2OC)=NC3)ccc1C(=O)O + Cc1cncc(-c2nc(NCCc3c[nH]c4ccccc34)c3ncn(C(C)C)c3n2)c1 , please.
Completion: 11.4

###

System: 855422-203-R-J1-PDC complex spheroid growth
ASSAY_REMARKS: Anticancer human tumor 855422-203-R-J1-PDC cell line growth inhibition [AhR];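 further: spheroids exposed to agents for seven days before readout; percent of DMSO vehicle control luminescence viability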
MEASUREMENT_CONTEXT: second compound 0.316 µM; first compound 0.0316 µM; stronger effect = lower value
From the text: Multicellular complex tumor spheroid response to aryl hydrocarbon receptor antagonists in combination with a variety of drugs and investigational agents in selected tumor cell lines […] Compounds. […] If the clinical Cmax for an agent had not been determined, the highest concentration tested was 10 microM (Table 1). […]
OUTCOME_MEASURE: viability, T/C

Guide cases for viability, T/C, answers given:
1) CC(C)c1c(-c2ccccc2)nc2c(C#N)c[nH]n2c1=O + CC(CO)NC(=O)c1cc(-c2ccc(Cl)cc2)nn(-c2cnn(C)c2)c1=O
93.1%
2) CC(C)c1c(-c2ccccc2)nc2c(C#N)c[nH]n2c1=O + Cc1ccccc1N=Nc1ccc(NC(=O)c2ccnn2C)c(C)c1
106%
3) O=C(C=Cc1cccc(S(=O)(=O)Nc2ccccc2)c1)NO + Cc1cncc(-c2nc(NCCc3c[nH]c4ccccc34)c3ncn(C(C)C)c3n2)c1
84.8%

Prompt: Consider the compound Nc1ncn(C2CC(O)C(CO)O2)c(=O)n1 (stereo unspecified) + Cc1cncc(-c2nc(NCCc3c[nH]c4ccccc34)c3ncn(C(C)C)c3n2)c1 and give its measured viability, T/C.
Completion: 81.9%

Prompt: Consider the compound COc1cc(Nc2ncc3c(n2)-c2ccc(Cl)cc2C(c2c(F)cccc2OC)=NC3)ccc1C(=O)O + CC(CO)NC(=O)c1cc(-c2ccc(Cl)cc2)nn(-c2cnn(C)c2)c1=O and give its measured viability, T/C.
Completion: 87.1%

Prompt: Consider the compound Nc1ccccc1NC(=O)c1ccc(CNC(=O)OCc2cccnc2)cc1 + Cc1ccccc1N=Nc1ccc(NC(=O)c2ccnn2C)c(C)c1 and give its measured viability, T/C.
Completion: 103%

###

Tested on: 855422-203-R-J1-PDC complex spheroid growth
ASSAY_REMARKS: Anticancer human tumor 855422-203-R-J1-PDC cell line growth inhibition [AhR];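 further: spheroids exposed to agents for seven days before readout; percent of DMSO vehicle control luminescence viability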
MEASUREMENT_CONTEXT: second compound 0.1 µM; first compound 0.316 µM; stronger effect = lower value
OUTCOME_MEASURE: viability, T/C (%)
Numeric only. Scale: %

Guide cases for viability, T/C, answers given:
1) O=C(c1cc(Cc2n[nH]c(=O)c3ccccc23)ccc1F)N1CCN(C(=O)C2CC2)CC1 + Cc1cncc(-c2nc(NCCc3c[nH]c4ccccc34)c3ncn(C(C)C)c3n2)c1
99.6
2) Nc1ccccc1NC(=O)c1ccc(CNC(=O)OCc2cccnc2)cc1 + Cc1ccccc1N=Nc1ccc(NC(=O)c2ccnn2C)c(C)c1
100
3) COc1ccc([C@@H](O)c2cc(-c3ncnc4cc(N5CCOCC5)ccc34)c(F)cc2Cl)nn1 + Cc1ccccc1N=Nc1ccc(NC(=O)c2ccnn2C)c(C)c1
98.3
4) Nc1ncn(C2CC(O)C(CO)O2)c(=O)n1 (configuration not stated) + Cc1cncc(-c2nc(NCCc3c[nH]c4ccccc34)c3ncn(C(C)C)c3n2)c1
82
5) COc1cccc2c1C(=O)c1c(O)c3c(c(O)c1C2=O)CC(O)(C(=O)CO)CC3OC1CC(N)C(O)C(C)O1 (configuration not stated) + CC(CO)NC(=O)c1cc(-c2ccc(Cl)cc2)nn(-c2cnn(C)c2)c1=O
4.3
6) Nc1ccn(C2OC(CO)C(O)C2(F)F)c(=O)n1 (configuration not stated) + Cc1ccccc1N=Nc1ccc(NC(=O)c2ccnn2C)c(C)c1
40.4

We next turn to a different compound, shown below.
Prompt: Consider the compound Nc1ncn(C2CC(O)C(CO)O2)c(=O)n1 (configuration not stated) + Cc1ccccc1N=Nc1ccc(NC(=O)c2ccnn2C)c(C)c1 and give its measured viability, T/C.
Completion: 93.5
